These data points were gathered from paper PMC10397247.

Target: T1, O4-bN
T1 chain: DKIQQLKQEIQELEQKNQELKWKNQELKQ
Assay: two-hybrid library CCNG1;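 further: natural log of median RNA to DNA barcode read ratio; higher means stronger binding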
Value kind: interaction score

# count of solved cases: 2
{"Binder": "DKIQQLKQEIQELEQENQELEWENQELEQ [O11-bN]", "Value kind": "interaction score", "Value reported": 0.401}
{"Binder": "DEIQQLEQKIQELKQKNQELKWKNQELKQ [O12-bN]", "Value kind": "interaction score", "Value reported": -0.33}

[1] DKNQQLKQKIQELKQKNQELKWEIQELEQ [O13-bN]
[2] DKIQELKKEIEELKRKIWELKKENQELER [4H2667-bH]
Exam item: I'm curious whether 1 or 2 has the smaller interaction score number. Which is it? Mark your selection by writing its label.
Marked response: 1
(1: -2.32, 2: -0.678)
